Exercise: for every item that follows, state its recorded inhibition at 0.01 µM.
# ASSAY_TARGET: 5HT6-human recombinant receptor (Homo sapiens, UniProt P50406)
# Construct: purchased Receptor Biology; host or cells: HEK-293 cell membranes
# Sequence (P50406 whole entry): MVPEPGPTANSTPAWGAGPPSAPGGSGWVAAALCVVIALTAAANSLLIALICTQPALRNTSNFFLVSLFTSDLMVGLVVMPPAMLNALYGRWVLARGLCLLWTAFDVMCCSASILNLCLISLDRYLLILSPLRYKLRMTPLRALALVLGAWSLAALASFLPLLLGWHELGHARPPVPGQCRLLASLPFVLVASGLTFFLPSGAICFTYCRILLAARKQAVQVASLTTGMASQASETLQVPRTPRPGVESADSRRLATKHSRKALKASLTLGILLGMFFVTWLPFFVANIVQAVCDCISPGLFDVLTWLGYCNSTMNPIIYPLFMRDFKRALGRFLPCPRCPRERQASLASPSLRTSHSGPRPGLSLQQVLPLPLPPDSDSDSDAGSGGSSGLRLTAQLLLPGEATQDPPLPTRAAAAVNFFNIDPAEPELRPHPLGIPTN
# PROTOCOL_DETAILS: Binding to serotonin receptor 5-HT6 ([3H]-LSD displacement)
# EXPERIMENTAL_CONDITIONS: 1 h, compound at 10 nM; radioligand [3H]-LSD 2.7 nM
Structures can show the parent of a compound that is named as a salt.
A number alone suffices; assume %.

Ask | Which inhibition at 0.01 µM is listed for O=S(=O)(Nc1ccc2c(c1)CNCC2)c1cccc2c(Cl)cccc12 [Example 154, Hydrochloride] ?
Reply | 65.7

Ask | Which inhibition at 0.01 µM is listed for CN1CCc2ccc(NS(=O)(=O)c3c(Cl)nc4sccn34)cc2C1 [Example 53, hydrochloride] ?
Reply | 55.4

Ask | Which inhibition at 0.01 µM is listed for O=S(=O)(Nc1ccc2c(c1)CNCC2)c1c(Cl)nc2sccn12 [Example 54, hydrochloride] ?
Reply | 81

Ask | Which inhibition at 0.01 µM is listed for Cc1c(S(=O)(=O)Nc2ccc3c(c2)CCNC3)sc2ccc(Cl)cc12 [Example 4, hydrochloride] ?
Reply | 27.3

====

# ASSAY_TARGET: 5HT6-human recombinant receptor (Homo sapiens)
# Construct: purchased Receptor Biology; host or cells: HEK-293 cell membranes
# PROTOCOL_DETAILS: Binding to serotonin receptor 5-HT6 ([3H]-LSD displacement)
# EXPERIMENTAL_CONDITIONS: 1 h, compound at 100 nM; radioligand [3H]-LSD 2.7 nM
Structures can show the parent of a compound that is named as a salt.
MEASURED_ATTRIBUTE: inhibition at 0.1 µM (%)
A number alone suffices; assume %.

Ask | Which inhibition at 0.1 µM is listed for O=S(=O)(Nc1ccc2c(c1)CNCC2)c1csc2ccccc12 [Example 78, hydrochloride] ?
Reply | 85.8

Ask | Which inhibition at 0.1 µM is listed for Cc1c(S(=O)(=O)Nc2ccc3c(c2)CNCC3)sc2ccc(F)cc12 [Example 64, hydrochloride] ?
Reply | 66.9

Ask | Which inhibition at 0.1 µM is listed for Cc1ccc(S(=O)(=O)Nc2ccc3c(c2)CCNC3)c2ccccc12 [Example 6, hydrochloride] ?
Reply | 88.8

Ask | Which inhibition at 0.1 µM is listed for O=S(=O)(Nc1ccc2c(c1)CNCC2)c1cccc2ccccc12 [Example 61, hydrochloride] ?
Reply | 85.5

Ask | Which inhibition at 0.1 µM is listed for O=S(=O)(Nc1ccc2c(c1)CCNC2)c1cc2ccccc2s1 [Example 24, hydrochloride] ?
Reply | 86.8

Ask | Which inhibition at 0.1 µM is listed for O=S(=O)(Nc1ccc2c(c1)CNCC2)c1ccc(Cl)c2ccccc12 [Example 81, hydrochloride] ?
Reply | 84.1

Ask | Which inhibition at 0.1 µM is listed for CN1CCc2ccc(NS(=O)(=O)c3c(Cl)nc4sccn34)cc2C1 [Example 53, hydrochloride] ?
Reply | 82.8

Ask | Which inhibition at 0.1 µM is listed for O=S(=O)(Nc1ccc2c(c1)CNCC2)c1c(Cl)nc2sccn12 [Example 54, hydrochloride] ?
Reply | 91.9

====

# ASSAY_TARGET: 5HT6-human recombinant receptor (Homo sapiens, UniProt P50406)
# PROTOCOL_DETAILS: Binding to serotonin receptor 5-HT6 ([3H]-LSD displacement)
# EXPERIMENTAL_CONDITIONS: membranes of HEK-293 cells expressing the receptor; radioligand [3H]-LSD 2.7 nM; 60 min, 37° C.
# Description: Cell membranes of HEK-293 cells expressing the 5HT6-human recombinant receptor were supplied by Receptor Biology. In said membranes the receptor concentration is 2.18 pmol/mg protein and the protein concentration is 9.17 mg/ml. […] The commercial membrane is diluted (1:40 dilution) with the binding buffer: 50 mM Tris-HCl, 10 mM MgCl2, 0.5 mM EDTA (pH 7.4). […] Non-specific binding is determined in the presence of 100 μM of serotonin. […]
pKi: −log10 of the molar value. Structures can show the parent of a compound that is named as a salt.
Label scheme for pKi: lower than 8 is false, 8 and above is true.

Ask | Can O=S(=O)(Nc1ccc2c(c1)CNCC2)c1cccc2c(Cl)cccc12 [Example 154, Hydrochloride] be said to have pKi at or above 8?
Reply | false

Ask | Can O=S(=O)(Nc1ccc2c(c1)CNCC2)c1cccc2nonc12 [Example 72, hydrochloride] be said to have pKi at or above 8?
Reply | false

Ask | Can CC(C)(C)OC(=O)N1CCc2cc(NS(=O)(=O)c3cccc4ccccc34)ccc2C1 be said to have pKi at or above 8?
Reply | true

Ask | Can O=S(=O)(Nc1ccc2c(c1)CCNC2)c1ccc(Cl)c2ccccc12 [Example 31, hydrochloride] be said to have pKi at or above 8?
Reply | true

Ask | Can Cc1ccc2nsnc2c1S(=O)(=O)Nc1ccc2c(c1)CNCC2 [Example 76, hydrochloride] be said to have pKi at or above 8?
Reply | false

Ask | Can O=S(=O)(Nc1ccc2c(c1)CNCC2)c1cccc2ccccc12 [Example 61, hydrochloride] be said to have pKi at or above 8?
Reply | true

Ask | Can O=S(=O)(Nc1ccc2c(c1)CCNC2)c1csc2ccccc12 [Example 29, hydrochloride] be said to have pKi at or above 8?
Reply | true

Ask | Can Cc1c(S(=O)(=O)Nc2ccc3c(c2)CNCC3)sc2ccc(F)cc12 [Example 64, hydrochloride] be said to have pKi at or above 8?
Reply | false

====

# ASSAY_TARGET: 5HT6-human recombinant receptor (Homo sapiens, UniProt P50406)
# Construct: purchased Receptor Biology; host or cells: HEK-293 cell membranes
# PROTOCOL_DETAILS: Binding to serotonin receptor 5-HT6 ([3H]-LSD displacement)
# EXPERIMENTAL_CONDITIONS: membranes of HEK-293 cells expressing the receptor; radioligand [3H]-LSD 2.7 nM; 60 min, 37° C.
Structures can show the parent of a compound that is named as a salt.
MEASURED_ATTRIBUTE: Ki
Returns: string containing the numeric result and its unit.

Ask | Which Ki is listed for CN1CCc2cc(NS(=O)(=O)c3c(Cl)nc4sccn34)ccc2C1 [Example 19, hydrochloride] ?
Reply | 2.3 nM

Ask | Which Ki is listed for CCc1ccc(OC)c(S(=O)(=O)Nc2ccc3c(c2)CNCC3)c1 [Example 86, hydrochloride] ?
Reply | 6.1 nM

Ask | Which Ki is listed for O=S(=O)(Nc1ccc2c(c1)CNCC2)c1csc2ccccc12 [Example 78, hydrochloride] ?
Reply | 2.1 nM

====

# ASSAY_TARGET: 5HT6-human recombinant receptor (Homo sapiens, UniProt P50406)
# Construct: purchased Receptor Biology; host or cells: HEK-293 cell membranes
# PROTOCOL_DETAILS: Binding to serotonin receptor 5-HT6 ([3H]-LSD displacement)
# EXPERIMENTAL_CONDITIONS: 1 h, compound at 10 nM; radioligand [3H]-LSD 2.7 nM
Structures can show the parent of a compound that is named as a salt.
Exercise: for every item that follows, state its recorded inhibition at 0.01 µM.
A number alone suffices; assume %.

Ask | Which inhibition at 0.01 µM is listed for CCc1ccc(OC)c(S(=O)(=O)Nc2ccc3c(c2)CNCC3)c1 [Example 86, hydrochloride] ?
Reply | 78.9

Ask | Which inhibition at 0.01 µM is listed for O=S(=O)(Nc1ccc2c(c1)CCNC2)c1ccc(Cl)c2ccccc12 [Example 31, hydrochloride] ?
Reply | 72.3

Ask | Which inhibition at 0.01 µM is listed for O=S(=O)(Nc1ccc2c(c1)CCNC2)c1cccc2c(Cl)cccc12 [Example 42, hydrochloride] ?
Reply | 78.2

Ask | Which inhibition at 0.01 µM is listed for O=S(=O)(Nc1ccc2c(c1)CCNC2)c1ccc(F)c2ccccc12 [Example 30, hydrochloride] ?
Reply | 63.2

Ask | Which inhibition at 0.01 µM is listed for CC(C)(C)OC(=O)N1CCc2cc(NS(=O)(=O)c3ccc4ccccc4c3)ccc2C1 [Example 16] ?
Reply | 5.6

Ask | Which inhibition at 0.01 µM is listed for CC(C)(C)OC(=O)N1CCc2cc(NS(=O)(=O)c3cccc4ccccc34)ccc2C1 [Example 13] ?
Reply | 30.7

Ask | Which inhibition at 0.01 µM is listed for Cc1c(S(=O)(=O)Nc2ccc3c(c2)CNCC3)sc2ccc(Cl)cc12 [Example 60, hydrochloride] ?
Reply | 44.8

Ask | Which inhibition at 0.01 µM is listed for CN1CCc2cc(NS(=O)(=O)c3c(Cl)nc4sccn34)ccc2C1 [Example 19, hydrochloride] ?
Reply | 74.2

Ask | Which inhibition at 0.01 µM is listed for O=S(=O)(Nc1ccc2c(c1)CCNC2)c1ccc2ccccc2c1 [Example 8, hydrochloride] ?
Reply | 37.4

Ask | Which inhibition at 0.01 µM is listed for O=S(=O)(Nc1ccc2c(c1)CCNC2)c1cccc2ccccc12 [Example 1, hydrochloride] ?
Reply | 53.3

Ask | Which inhibition at 0.01 µM is listed for CCc1ccc(OC)c(S(=O)(=O)Nc2ccc3c(c2)CCNC3)c1 [Example 35, hydrochloride] ?
Reply | 48.8

Ask | Which inhibition at 0.01 µM is listed for Cc1ccc(S(=O)(=O)Nc2ccc3c(c2)CCNC3)c2ccccc12 [Example 6, hydrochloride] ?
Reply | 60.1

Ask | Which inhibition at 0.01 µM is listed for O=S(=O)(Nc1ccc2c(c1)CNCC2)c1ccc(Cl)c2ccccc12 [Example 81, hydrochloride] ?
Reply | 70.3

Ask | Which inhibition at 0.01 µM is listed for O=S(=O)(Nc1ccc2c(c1)CCNC2)c1csc2ccccc12 [Example 29, hydrochloride] ?
Reply | 88

Ask | Which inhibition at 0.01 µM is listed for O=S(=O)(Nc1ccc2c(c1)CNCC2)c1cccc2ccccc12 [Example 61, hydrochloride] ?
Reply | 78.6

Ask | Which inhibition at 0.01 µM is listed for Cc1ccc2nsnc2c1S(=O)(=O)Nc1ccc2c(c1)CNCC2 [Example 76, hydrochloride] ?
Reply | 73.1
